The reported numbers originate from patent US10941182.

- System name: T1, rat APJ receptor (rat, UniProt Q9JHG3 1-377)
- T1 sequence (looked up): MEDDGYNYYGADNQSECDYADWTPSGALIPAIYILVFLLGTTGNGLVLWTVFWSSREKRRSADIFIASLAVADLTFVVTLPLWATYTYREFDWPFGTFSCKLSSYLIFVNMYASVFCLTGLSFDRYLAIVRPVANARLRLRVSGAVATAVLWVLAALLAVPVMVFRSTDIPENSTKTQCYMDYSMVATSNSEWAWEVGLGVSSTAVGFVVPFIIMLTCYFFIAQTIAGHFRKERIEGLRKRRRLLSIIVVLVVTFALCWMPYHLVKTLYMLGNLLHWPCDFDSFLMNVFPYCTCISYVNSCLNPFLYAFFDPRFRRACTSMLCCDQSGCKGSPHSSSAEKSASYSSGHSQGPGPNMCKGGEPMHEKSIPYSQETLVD
- Procedure text: cell-based or functional assay
Non-standard residues stand in square brackets, D forms with d. Primed or numbered codes have the meaning given here. No end group written: not given here. *: point of attachment. Oic = O=C(O)[C@@H]1C[C@@H]2CCCC[C@@H]2N1; Phe(4-Cl) = N[C@@H](Cc1ccc(Cl)cc1)C(=O)O; dPhe(4-Cl) = N[C@H](Cc1ccc(Cl)cc1)C(=O)O; d2Nal = N[C@H](Cc1ccc2ccccc2c1)C(=O)O; NMeR = CN[C@@H](CCCNC(=N)N)C(=O)O; Tridecanoyl = CCCCCCCCCCCCC(=O)*; hArg = N=C(N)NCCCC[C@H](N)C(=O)O; Cha = N[C@@H](CC1CCCCC1)C(=O)O; β3hN = NC(=O)C[C@H](N)CC(=O)O; AC4Abu″ = not defined here; Nle = CCCC[C@H](N)C(=O)O; Orn = NCCC[C@H](N)C(=O)O; AEEA = NCCOCCOCC(=O)O; Aib = CC(C)(N)C(=O)O
Measured parameter: EC50 Rat APJ Receptor (nM)
The response must be a number in nM with no trailing unit.

Tridecanoyl-[AC4Abu″][AEEA][AEEA][hArg]Q[dR]P[NMeR][Cha]SHKG[Oic][Nle]P[dPhe(4-Cl)]-OH (reading uncertain) [apelin polypeptide SEQ ID NO: 230] ... 13.8
[Orn]F[hArg][hArg][β3hN][hArg]P[hArg][Cha]SHKG[Oic][Nle]P[Phe(4-Cl)] [apelin polypeptide SEQ ID NO: 691] ... 0.424
[Orn]F[hArg][hArg]Q[hArg]P[hArg][Cha]SHKG[Oic][Nle][d2Nal] [apelin polypeptide SEQ ID NO: 713] ... 1.14
[Orn]F[hArg][hArg]Q[hArg]P[hArg][Cha]SHKG[Aib][Nle]P[Phe(4-Cl)] [apelin polypeptide SEQ ID NO: 682] ... 7.98
Ac-[hArg][hArg]Q[hArg]P[NMeR][Cha]SHKG[Oic][Nle]P[Phe(4-Cl)]-OH (SMILES CCCC[C@H](NC(=O)[C@@H]1C[C@@H]2CCCC[C@@H]2N1C(=O)CNC(=O)[C@H](CCCCN)NC(=O)[C@H](Cc1c[nH]cn1)NC(=O)[C@H](CO)NC(=O)[C@H](CC1CCCCC1)NC(=O)[C@H](CCCNC(=N)N)N(C)C(=O)[C@@H]1CCCN1C(=O)[C@H](CCCCNC(=N)N)NC(=O)[C@H](CCC(N)=O)NC(=O)[C@H](CCCCNC(=N)N)NC(=O)[C@H](CCCCNC(=N)N)NC(C)=O)C(=O)N1CCC[C@H]1C(=O)N[C@@H](Cc1ccc(Cl)cc1)C(=O)O) [apelin polypeptide SEQ ID NO: 56] ... 0.915

Pending binder:
Query: EC50 Rat APJ Receptor; subject: Ac-[Orn]F[hArg][hArg]QRP[hArg][Cha]SHKGP[Nle][Phe(4-Cl)]-OH (SMILES CCCC[C@H](NC(=O)[C@@H]1CCCN1C(=O)CNC(=O)[C@H](CCCCN)NC(=O)[C@H](Cc1c[nH]cn1)NC(=O)[C@H](CO)NC(=O)[C@H](CC1CCCCC1)NC(=O)[C@H](CCCCNC(=N)N)NC(=O)[C@@H]1CCCN1C(=O)[C@H](CCCNC(=N)N)NC(=O)[C@H](CCC(N)=O)NC(=O)[C@H](CCCCNC(=N)N)NC(=O)[C@H](CCCCNC(=N)N)NC(=O)[C@H](Cc1ccccc1)NC(=O)[C@H](CCCN)NC(C)=O)C(=O)N[C@@H](Cc1ccc(Cl)cc1)C(=O)O) [apelin polypeptide SEQ ID NO: 48]
0.486
